System tested: hPPAR gamma (Homo sapiens, UniProt P37231)
Construct: expressed in transfected cells; host or cells: CV-1 cells
Sequence (P37231 238-503 limits assumed): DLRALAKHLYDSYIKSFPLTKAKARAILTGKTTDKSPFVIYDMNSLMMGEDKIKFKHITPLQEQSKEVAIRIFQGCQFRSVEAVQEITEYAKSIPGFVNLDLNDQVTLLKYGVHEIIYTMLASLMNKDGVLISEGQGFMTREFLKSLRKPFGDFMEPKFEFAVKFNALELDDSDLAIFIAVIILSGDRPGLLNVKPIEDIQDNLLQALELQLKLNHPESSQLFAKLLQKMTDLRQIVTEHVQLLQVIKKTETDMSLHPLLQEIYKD
Test: Transient transfection (transactivation) assay in CV-1 cells, GAL4-PPAR LBD chimera, SPAP reporter
Format: cell-based
Recorded conditions: read-out: EC50 μM HPPARγ
Field: label. Allowed values: Yes (EC50 < 0.4 µM) or No (EC50 >= 0.4 µM).

* Cc1cc(CNC(=O)c2cc(-c3ccc(C(C)(C)C)cc3)nn2Cc2ccccc2)ccc1OC(C)(C)C(=O)O [Example 61] | Yes
* COCCn1nc(C(=O)NCc2ccc(OC(C)(C)C(=O)O)c(C)c2)cc1-c1ccc(C(C)(C)C)cc1 [Example 52] | No
* Cn1nc(C(=O)NCc2ccc(OC(C)(C)C(=O)O)cc2)cc1-c1ccc(C(C)(C)C)cc1 [Example 17] | Yes
* Cc1cc(CNC(=O)c2cc(-c3cccc(-c4ccccc4)c3)nn2C)ccc1OC(C)(C)C(=O)O [Example 28] | No

Lab note: confirm whether the reported EC50 for this compound is below 0.4 µM, equality not counting. compound: Cc1cc(CNC(=O)c2cc(-c3ccc(N4CCCCC4)cc3)nn2C)ccc1OC(C)(C)C(=O)O [Example 45] Yes

Lab note: confirm whether the reported EC50 for this compound is below 0.4 µM, equality not counting. compound: Cc1cc(CNC(=O)c2cc(-c3ccc(C(C)(C)C)cc3)n(Cc3ccccc3)n2)ccc1OC(C)(C)C(=O)O [Example 50] No

Lab note: confirm whether the reported EC50 for this compound is below 0.4 µM, equality not counting. compound: Cc1cc(CNC(=O)c2cc(-c3ccc(OCc4ccccc4)cc3)nn2C)ccc1OC(C)(C)C(=O)O [Example 57] Yes

---

System tested: hPPAR delta (Homo sapiens)
Construct: expressed in transfected cells; host or cells: CV-1 cells
Sequence (Q03181 211-439 limits assumed): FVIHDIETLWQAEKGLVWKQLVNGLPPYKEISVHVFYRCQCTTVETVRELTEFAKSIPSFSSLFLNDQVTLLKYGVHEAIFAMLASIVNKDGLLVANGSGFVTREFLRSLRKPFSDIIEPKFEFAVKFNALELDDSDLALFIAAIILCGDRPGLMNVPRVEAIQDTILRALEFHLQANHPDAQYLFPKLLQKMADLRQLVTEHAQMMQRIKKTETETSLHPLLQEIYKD
Test: Transient transfection (transactivation) assay in CV-1 cells, GAL4-PPAR LBD chimera, SPAP reporter
Format: cell-based
Recorded conditions: read-out: EC50 μM HPPARδ
Text: Compounds were screened for functional potency in transient transfection assays in CV-1 cells for their ability to activate the PPAR subtypes (transactivation assay). A previously established chimeric receptor system was utilized to allow comparison of the relative transcriptional activity of the receptor subtypes on the same target gene and to prevent endogenous receptor activation from complicating the interpretation of results. […]
Listed here are molecules together with their documented EC50.
Supply the numeric figure in µM, leaving out any unit text.

Answered cases to consult:
- COCCn1nc(-c2ccc(C(C)(C)C)cc2)cc1C(=O)NCc1ccc(OC(C)(C)C(=O)O)c(C)c1: 2.05
- Cc1cc(CNC(=O)c2cc(-c3ccc(C(C)(C)C)cc3)nn2C)cc(C)c1OC(C)(C)C(=O)O: 1

Provide one value: measured EC50 of C=CCn1nc(-c2ccc(C(C)(C)C)cc2)cc1C(=O)NCc1ccc(OC(C)(C)C(=O)O)cc1 5.93

Provide one value: measured EC50 of Cc1cc(CNC(=O)c2cc(-c3ccc(Br)cc3)n(C)n2)ccc1OC(C)(C)C(=O)O 3.12

Provide one value: measured EC50 of Cc1cc(CNC(=O)c2cc(-c3cccc(N4CCCCC4)c3)n(C)n2)ccc1OC(C)(C)C(=O)O 5.59

Provide one value: measured EC50 of Cc1cc(CNC(=O)c2cc(-c3ccc(-c4ccccc4C)cc3)nn2C)ccc1OC(C)(C)C(=O)O 5.17

Provide one value: measured EC50 of CCn1nc(-c2ccc(C(C)(C)C)cc2)cc1C(=O)NCc1ccc(OC(C)(C)C(=O)O)c(C)c1 2.44

Provide one value: measured EC50 of C=CCn1nc(-c2ccc(C(C)(C)C)cc2)cc1C(=O)NCc1ccc(OC(C)(C)C(=O)O)c(C)c1 1.15

Provide one value: measured EC50 of Cc1cc(CNC(=O)c2cc(-c3ccc(CC(C)C)cc3)n(C)n2)cc(Cl)c1OC(C)(C)C(=O)O 0.206

Provide one value: measured EC50 of Cc1cc(CNC(=O)c2cc(-c3ccc(-c4ccoc4)cc3)n(C)n2)ccc1OC(C)(C)C(=O)O 1.64

Provide one value: measured EC50 of Cc1cc(CNC(=O)c2cc(-c3cccc(N4CCCC4)c3)nn2C)ccc1OC(C)(C)C(=O)O 4.33

Provide one value: measured EC50 of CCCc1cc(CNC(=O)c2cc(-c3ccc(C(C)(C)C)cc3)nn2C)ccc1OC(C)(C)C(=O)O 1.09

Provide one value: measured EC50 of Cc1cc(CNC(=O)c2cc(-c3ccc(-c4ccccc4)cc3)n(C)n2)ccc1OC(C)(C)C(=O)O 1.55
